tested on: NCI-H1650; experiment: relative viability (nuclei count vs DMSO), 5 days (fraction); higher = more cells survive; settings: first compound 2.53 µM
# Lookup of reported relative viability keyed by entry

See these solved cases before continuing.
Compound	Property measured	Result
Nc1cccc2c1CN(C1CCC(=O)NC1=O)C2=O (stereo unspecified) [Lenalidomide] + Cc1nc(Nc2ncc(C(=O)Nc3c(C)cccc3Cl)s2)cc(N2CCN(CCO)CC2)n1 [Dasatinib] (partner 0.075 µM)	relative viability	0.316
Nc1cccc2c1CN(C1CCC(=O)NC1=O)C2=O (stereo unspecified) [Lenalidomide] + CS(=O)(=O)N1CCN(Cc2cc3nc(-c4cccc5[nH]ncc45)nc(N4CCOCC4)c3s2)CC1 [Pictilisib] (partner 1 µM)	relative viability	0.731
Nc1cccc2c1CN(C1CCC(=O)NC1=O)C2=O (stereo unspecified) [Lenalidomide] + CC(=O)c1c(C)c2cnc(Nc3ccc(N4CCNCC4)cn3)nc2n(C2CCCC2)c1=O [Palbociclib] (partner 0.5 µM)	relative viability	0.343

Query: I would be grateful if you could share the reported relative viability for Nc1cccc2c1CN(C1CCC(=O)NC1=O)C2=O (stereo unspecified) [Lenalidomide] + O=C(CCCCCCC(=O)Nc1ccccc1)NO [Vorinostat] (partner 1 µM) .
Reply: 0.543

Query: I would be grateful if you could share the reported relative viability for Nc1cccc2c1CN(C1CCC(=O)NC1=O)C2=O (stereo unspecified) [Lenalidomide] + C[C@@H](Oc1cc(-c2cnn(C3CCNCC3)c2)cnc1N)c1c(Cl)ccc(F)c1Cl [Crizotinib] (partner 1 µM) .
Reply: 1.11

Query: I would be grateful if you could share the reported relative viability for Nc1cccc2c1CN(C1CCC(=O)NC1=O)C2=O (stereo unspecified) [Lenalidomide] + CC(=O)Nc1cccc(-n2c(=O)n(C3CC3)c(=O)c3c(Nc4ccc(I)cc4F)n(C)c(=O)c(C)c32)c1 [Trametinib] (partner 0.02 µM) .
Reply: 0.551

---

tested on: NCI-H322M; assay: relative viability (nuclei count vs DMSO), 5 days (fraction); higher = more cells survive; details: first compound 0.06325 µM
# Lookup of reported relative viability keyed by entry
Reply with just the number.

Compound	Tested target	relative viability
CCNC(=O)c1noc(-c2cc(C(C)C)c(O)cc2O)c1-c1ccc(CN2CCOCC2)cc1 [Luminespib] + CS(=O)(=O)CCNCc1ccc(-c2ccc3ncnc(Nc4ccc(OCc5cccc(F)c5)c(Cl)c4)c3c2)o1 [Lapatinib] (partner 2 µM)	NCI-H322M	0.708
CCNC(=O)c1noc(-c2cc(C(C)C)c(O)cc2O)c1-c1ccc(CN2CCOCC2)cc1 [Luminespib] + CC(=O)Nc1cccc(-n2c(=O)n(C3CC3)c(=O)c3c(Nc4ccc(I)cc4F)n(C)c(=O)c(C)c32)c1 [Trametinib] (partner 0.02 µM)	NCI-H322M	0.456

Here is another compound to look at.
Query: I would be grateful if you could share the reported relative viability for CCNC(=O)c1noc(-c2cc(C(C)C)c(O)cc2O)c1-c1ccc(CN2CCOCC2)cc1 [Luminespib] + CC(C)C[C@H](NC(=O)[C@H](Cc1ccccc1)NC(=O)c1cnccn1)B(O)O [Bortezomib] (partner 0.002 µM) .
Reply: 1.32

---

test system: NCI-H2085; experiment: relative viability (nuclei count vs DMSO), 5 days (fraction); higher = more cells survive; conditions: first compound 0.03162 µM
Property measured: relative viability
Reply with just the number.

Compound	Tested target	Property measured	Quantitative result
Cc1cn(-c2cc(NC(=O)c3ccc(C)c(Nc4nccc(-c5cccnc5)n4)c3)cc(C(F)(F)F)c2)cn1 [Nilotinib] + COc1cccc2cc(-c3nc([C@H]4CC[C@H](C(=O)O)CC4)n4ncnc(N)c34)[nH]c12 [OSI-027] (partner 0.5 µM)	NCI-H2085	relative viability	0.428

Here is another compound to look at.
Query: Which relative viability is reported with NCI-H2085 for this entry: Cc1cn(-c2cc(NC(=O)c3ccc(C)c(Nc4nccc(-c5cccnc5)n4)c3)cc(C(F)(F)F)c2)cn1 [Nilotinib] + COc1cc2c(Oc3ccc(NC(=O)C4(C(=O)Nc5ccc(F)cc5)CC4)cc3F)ccnc2cc1OCCCN1CCOCC1 [Foretinib] (partner 0.25 µM) ?
Reply: 0.84
